Entries annotated with measured melting point

These solved cases illustrate the format of a correct answer.
COMPOUND: COc1cc(C2NCCS2)ccc1O (stereo not shown)
melting point: 158 to 161 °C
--
COMPOUND: Brc1ccc(C2NCCS2)cc1 (stereo not shown)
melting point: 107 °C
--
COMPOUND: COc1ccc(C2NCCS2)cc1OC (stereo not shown)
melting point: 54 to 56 °C

Note: attention shifts to another entry.
Look up melting point for this compound: COc1ccc(C2NCCS2)cc1 (stereo not shown)
94 to 95 °C
